- system: PDZ1/2 domain
- Sequence (P78352 65-246): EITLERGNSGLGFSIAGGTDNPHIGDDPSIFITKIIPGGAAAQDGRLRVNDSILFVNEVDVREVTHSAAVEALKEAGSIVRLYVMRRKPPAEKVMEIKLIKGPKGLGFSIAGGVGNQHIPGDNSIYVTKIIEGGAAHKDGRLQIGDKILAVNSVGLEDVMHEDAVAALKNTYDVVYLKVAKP
- assay_method_text: SPR, Biacore 3000; PDZ1/2 amine-coupled to the chip, peptide as analyte, 1:1 binding model
pKd: −log10 of the molar value.
metric: pKd

>>> measured_value("YGRKKRRQRRRKLSSIESDV (modifications not checked) [control chimeric peptide NA-1]")
7.12
